Just for reference, ChEMBL document CHEMBL4715820 is where these values come from.

- Tested on: A549
- protocol.details: Cytotoxicity in human A549 cells assessed as reduction in cell viability incubated for 48 hrs by resazurin dye based assay
- Format: functional
- assay.setup: A549, 48 h
endpoint.name: IC50 (µM)
Give the number; µM is assumed, so skip it.

| structure.as.smiles | assayed.target | IC50 / µM |
| --- | --- | --- |
| CC(=O)OC[C@H]1O[C@@H](n2[se]c3ccccc3c2=O)[C@H](OC(C)=O)[C@@H](OC(C)=O)[C@H]1OC(C)=O | A549 | 25.2 |
| O=c1c2ccccc2[se]n1-c1ccccc1 | A549 | 16.8 |

Entry CC(=O)O[C@@H]1[C@@H](OC(C)=O)[C@H](OC(C)=O)CO[C@H]1n1[se]c2ccccc2c1=O ; IC50 = 7

Entry CC(=O)OC[C@H]1O[C@@H](O[C@H]2[C@H](OC(C)=O)[C@@H](OC(C)=O)[C@H](n3[se]c4ccccc4c3=O)O[C@@H]2COC(C)=O)[C@H](OC(C)=O)[C@@H](OC(C)=O)[C@H]1OC(C)=O — recorded IC50 = 36.5

CC(=O)OC[C@H]1O[C@@H](n2[se]c3ccccc3c2=O)[C@H](OC(C)=O)[C@@H](OC(C)=O)[C@@H]1OC(C)=O has a reported IC50 of 20.4
